Below, each entry is listed alongside its reported Population Hoechst High Intensity Objects (%).
Tested on: HEK-293T
Assay: Multiplex assay against HEK293T
Type: toxicity, cell-based
Details: human, 48 h, 10 µM, compound concentration 10 uM, replicate 1
Response body: numeric value in %, unit text excluded.

{"compound": "CCc1nn2c(C)cc(C)nc2c1Cc1ccc(-c2nnc(C3CCNCC3)o2)cc1", "unit tag": "%", "data value": 4}
{"compound": "COc1ccc2[nH]c(I)c(CCNC(C)=O)c2c1 [IODOMELATONIN]", "unit tag": "%", "data value": 1}
{"compound": "CN1C[C@H](C(=O)N[C@]2(C)O[C@@]3(O)[C@@H]4CCCN4C(=O)[C@H](Cc4ccccc4)N3C2=O)C[C@@H]2c3cccc4[nH]cc(c34)C[C@H]21.CS(=O)(=O)O [DIHYDROERGOTAMINE MESYLATE]", "unit tag": "%", "data value": 2}
{"compound": "COc1cc(C(=O)N2CC[C@@H](O)[C@@H](N)C2)cc2nc(-c3cc4ccccc4n3CC3CC3)n(C)c12.Cl", "unit tag": "%", "data value": 18}
{"compound": "COC(c1ccccc1)(c1ccccc1)[C@H](Oc1nc(C)cc(C)n1)C(=O)O [AMBRISENTAN]", "unit tag": "%", "data value": 2}

Enter Population Hoechst High Intensity Objects (%) (test system HEK-293T) for CC(C)(C)c1ccc(CSc2cnn(C(C)(C)C)c(=O)c2Cl)cc1 [PYRIDABEN] 11

Enter Population Hoechst High Intensity Objects (%) (test system HEK-293T) for COc1c(Nc2ccc(S(C)(=O)=O)nc2C)ncnc1OC1CCN(C(=O)OC(C)C)CC1 [ADP-597] 4

Enter Population Hoechst High Intensity Objects (%) (test system HEK-293T) for `Cc1sc2c(c1C)C(c1ccc(Cl)cc1)=N[C@H](CC(=O)OC(C)(C)C)c1nnc(C)n1-2` 3

Enter Population Hoechst High Intensity Objects (%) (test system HEK-293T) for CSc1nc(NC2CCCC2)c([N+](=O)[O-])c(NC2CCCC2)n1 [GS-39783] 3

Enter Population Hoechst High Intensity Objects (%) (test system HEK-293T) for CN(C)C/C=C/C(=O)Nc1ccc(C(=O)N2CCCC(Nc3ncc(Cl)c(-c4c[nH]c5ccccc45)n3)C2)cc1 (configuration not stated) 67

###

System: HEK-293T
Experiment: Multiplex assay against HEK293T
Type: toxicity, cell-based
Conditions: human, 24 h, 10 µM, compound concentration 10 uM, replicate 1
Below, each entry is listed alongside its reported Population Normal (%).

{"compound": "CCCCC[C@H](O)/C=C/[C@H]1[C@H](O)CC(=O)[C@@H]1CCCCCCC(=O)O", "study target": "HEK-293T", "data value": "97%"}
{"compound": "COc1cc(C(=O)N2CC[C@@H](O)[C@@H](N)C2)cc2nc(-c3cc4ccccc4n3CC3CC3)n(C)c12.Cl", "study target": "HEK-293T", "data value": "81%"}
{"compound": "COc1cc(OC2CCN(C(C)=O)CC2)ccc1C(=O)N1CCC(N2C(=O)OCc3ccccc32)CC1", "study target": "HEK-293T", "data value": "96%"}

Supply measured Population Normal (%) of `S=C(NCCCc1c[nH]cn1)NCCCN(Cc1ccc(Cl)c(Cl)c1)c1ccc(Br)cn1` in your reply. 51%

###

Below, each entry is listed alongside its reported Population Normal (%).
Tested on: HEK-293T
Experiment: Multiplex assay against HEK293T
Type: toxicity, cell-based
Conditions: human, 24 h, 1 µM, compound concentration 1 uM, replicate 1
Non-standard residues stand in square brackets, D forms with d. Residues, ends and D or L forms follow the SMILES beside them.
Response body: numeric value in %, unit text excluded.

Use the examples below as a reference point.
{"compound": "C[C@H](NC(=O)CNC(=O)c1cccc(Cl)c1)c1ccccc1", "value type": "Population Normal (%)", "data value": 95}
{"compound": "CC(C)(C)c1ccc(CSc2cnn(C(C)(C)C)c(=O)c2Cl)cc1", "value type": "Population Normal (%)", "data value": 90}

Supply measured Population Normal (%) of `N[C@](CC1c2ccccc2Oc2ccccc21)(C(=O)O)[C@H]1C[C@@H]1C(=O)O` in your reply. 96

Supply measured Population Normal (%) of CC(C)C[C@@H]1NC(=O)[C@@H](C(C)C)NC(=O)[C@@H]2CCCN2C(=O)[C@@H](CC(=O)O)NC(=O)[C@@H](Cc2c[nH]c3ccccc23)NC1=O [BQ-123] (cyclo(L[dW][dD]P[dV])) in your reply. 96

Supply measured Population Normal (%) of `Cc1nn(C)c2nc(NNC(=O)Nc3cc(Cl)nc(Cl)c3)cc(C(C)C)c12` in your reply. 96

Supply measured Population Normal (%) of `CCCCCCNC(=O)Nc1ccc(S(=O)(=O)Nc2ccc(CCNC[C@H](O)COc3ccc(O)cc3)cc2)cc1` in your reply. 94

Supply measured Population Normal (%) of `O=c1ccc2ccc(OCCCCN3CCN(c4cccc5sccc45)CC3)cc2[nH]1` in your reply. 91

Supply measured Population Normal (%) of CN1C[C@H](C(=O)N[C@]2(C)O[C@@]3(O)[C@@H]4CCCN4C(=O)[C@H](Cc4ccccc4)N3C2=O)C[C@@H]2c3cccc4[nH]cc(c34)C[C@H]21.CS(=O)(=O)O [DIHYDROERGOTAMINE MESYLATE] in your reply. 95

###

Below, each entry is listed alongside its reported Population Tubulin-Different-Phenotype (%).
System: HEK-293T
Experiment: Multiplex assay against HEK293T
Format: toxicity, cell-based
Conditions: human, 48 h, 10 µM, compound concentration 10 uM, replicate 1
Non-standard residues stand in square brackets, D forms with d. Residues, ends and D or L forms follow the SMILES beside them.
Response body: numeric value in %, unit text excluded.

Use the examples below as a reference point.
{"molecule": "CSc1nc(NC2CCCC2)c([N+](=O)[O-])c(NC2CCCC2)n1", "unit tag": "%", "data value": 21}
{"molecule": "CCc1nn2c(C)cc(C)nc2c1Cc1ccc(-c2nnc(C3CCNCC3)o2)cc1", "unit tag": "%", "data value": 32}
{"molecule": "COCCn1c(C)c(C)s/c1=N\\C(=O)C1C(C)(C)C1(C)C", "unit tag": "%", "data value": 31}
{"molecule": "CC(C)(C)c1ccc(CSc2cnn(C(C)(C)C)c(=O)c2Cl)cc1", "unit tag": "%", "data value": 43}
{"molecule": "CCCCC[C@H](O)/C=C/[C@H]1[C@H](O)CC(=O)[C@@H]1CCCCCCC(=O)O", "unit tag": "%", "data value": 15}
{"molecule": "CC(C)C[C@H](CO)Nc1nc(S[C@@H](C)c2ccccc2)nc2nc(N)sc12", "unit tag": "%", "data value": 28}
{"molecule": "CC(C)C[C@@H]1NC(=O)[C@@H](C(C)C)NC(=O)[C@@H]2CCCN2C(=O)[C@@H](CC(=O)O)NC(=O)[C@@H](Cc2c[nH]c3ccccc23)NC1=O [BQ-123] (cyclo(L[dW][dD]P[dV]))", "unit tag": "%", "data value": 15}
{"molecule": "Cc1sc2c(c1C)C(c1ccc(Cl)cc1)=N[C@H](CC(=O)OC(C)(C)C)c1nnc(C)n1-2", "unit tag": "%", "data value": 19}

Supply measured Population Tubulin-Different-Phenotype (%) of `COc1ccc2[nH]c(I)c(CCNC(C)=O)c2c1` in your reply. 11

Supply measured Population Tubulin-Different-Phenotype (%) of `Cc1cc(=O)n(C)c2cc(N3C(=O)CC[C@H](NS(=O)(=O)CC(C)C)[C@H]3c3ccc(Cl)cc3)ccc12` in your reply. 58

Supply measured Population Tubulin-Different-Phenotype (%) of `COc1ccc2c(c1OCc1ccccc1)C[C@@H](C(=O)O)N(C(=O)C(c1ccccc1)c1ccccc1)C2` in your reply. 15

Supply measured Population Tubulin-Different-Phenotype (%) of `O=C(Nc1cc(-c2ccccc2)nn1-c1ccccc1F)c1ccc([N+](=O)[O-])cc1` in your reply. 23

###

Below, each entry is listed alongside its reported Population Fragmented Nuclei (%).
Tested on: Fibroblast
Experiment: Multiplex assay against human fibroblast
Assay type: toxicity, cell-based
Conditions: 12 h, 1 µM, compound concentration 1 uM, replicate 1
Non-standard residues stand in square brackets, D forms with d. Residues, ends and D or L forms follow the SMILES beside them.
Response body: numeric value in %, unit text excluded.

Use the examples below as a reference point.
{"compound": "Nc1nc(CC(=O)Nc2ccc(CCNC[C@H](O)c3ccccc3)cc2)cs1 [MIRABEGRON]", "value type": "Population Fragmented Nuclei (%)", "data value": 19}
{"compound": "CC(C)C[C@@H]1NC(=O)[C@@H](C(C)C)NC(=O)[C@@H]2CCCN2C(=O)[C@@H](CC(=O)O)NC(=O)[C@@H](Cc2c[nH]c3ccccc23)NC1=O [BQ-123] (cyclo(L[dW][dD]P[dV]))", "value type": "Population Fragmented Nuclei (%)", "data value": 18}

Supply measured Population Fragmented Nuclei (%) of CCC(=O)OCC(=O)[C@@]1(OC(=O)CC)[C@@H](C)C[C@H]2[C@@H]3CCC4=CC(=O)C=C[C@]4(C)[C@@]3(Cl)[C@@H](O)C[C@@]21C [BECLOMETHASONE DIPROPIONATE] in your reply. 13

Supply measured Population Fragmented Nuclei (%) of COC(c1ccccc1)(c1ccccc1)[C@H](Oc1nc(C)cc(C)n1)C(=O)O [AMBRISENTAN] in your reply. 13

Supply measured Population Fragmented Nuclei (%) of `CC(C)(O)C(=O)N1CCN(c2ccc(C(F)(F)F)c(C3=C(c4c[nH]c5ccccc45)C(=O)NC3=O)c2)CC1` in your reply. 14

Supply measured Population Fragmented Nuclei (%) of `COCCn1c(C)c(C)s/c1=N\C(=O)C1C(C)(C)C1(C)C` in your reply. 18

Supply measured Population Fragmented Nuclei (%) of COCCCN1CCC(NC(=O)c2cc(Cl)c(N)c3c2OCC3)CC1 [PRUCALOPRIDE] in your reply. 20

Hello, the source for this data is ChEMBL document CHEMBL5058577, in case you need it.
